# Read-out: Monocyte Chemoattractant Protein-1 (MCP1), CCL2 (gene 6347)
# protocol text: BSK_3C_MCP1: BioMAP Diversity Plus: 3C Assay for Monocyte Chemoattractant Protein-1 (MCP1) Biomarker Activity (AID 2283017)
# study conditions: primary human endothelial cells (HUVEC); actives raise or lower the signal
Activity calls are given as the source filed them. The calls were made as follows: active = hit-call score of the fitted dose curve at least 0.9, where 1 is the maximum; inactive = score below 0.9.
property label: AC50

CC(C)N1C(=O)c2ccccc2NS1(=O)=O : inactive
CCN(CC)c1nc(C)cc(OP(=S)(OC)OC)n1 : inactive
CCCCOCN(C(=O)CCl)c1c(CC)cccc1CC : 30.2 µM (active)
Clc1nc(Cl)nc(Nc2ccccc2Cl)n1 : inactive
CCSC(=O)N1CCCCCC1 : inactive

The compound listed as Nc1cnn(-c2ccccc2)c(=O)c1Cl shows AC50 equal to inactive

The compound listed as O=C(Nc1ccccc1-c1ccc(Cl)cc1)c1cccnc1Cl shows AC50 equal to inactive

The compound listed as OC(c1ccc(Cl)cc1)(c1ccc(Cl)cc1)C(Cl)(Cl)Cl shows AC50 equal to 29.3 µM (active)

The compound listed as C=CCOC(=O)C(C)(C)OC(=O)c1cc(-n2c(=O)cc(C(F)(F)F)n(C)c2=O)ccc1Cl shows AC50 equal to inactive

The compound listed as CC(C)C1(C)N=C(c2ncccc2C(=O)O)NC1=O (configuration not stated) shows AC50 equal to inactive

The compound listed as Cn1c(-c2ccccc2)cc(-c2ccccc2)[n+]1C shows AC50 equal to 5.41 µM (active)

The compound listed as CCOc1cc(C(C)(C)C)ccc1C1COC(c2c(F)cccc2F)=N1 (configuration not stated) shows AC50 equal to 27.6 µM (active)
